Biological target: Dimer of Gag-Pol polyprotein [489-587] (Human immunodeficiency virus 1)
Construct: 489-587
Experiment: Protease Inhibition Assay
Procedure: The inhibitory activities of the compounds toward HIV-1 PR were determined by sodium dodecyl sulfate-polyacrylamide gel electrophoresis (SDS-PAGE) assay. The IC50 values of active compounds were determined using the partially purified protease and the synthetic substrate Ac-Ser-Gln-AsnTyr-Pro-Ile-Val-NH2.
Readout label: IC50

compound=CO[C@@H]1OCCC[C@@H]1OC(=O)N[C@@H](Cc1ccccc1)[C@H](O)C(=O)N1C[C@@H](Cl)C[C@H]1C(=O)NC(C)(C)C readout_label=IC50 test_value="37 nM"
compound="COC1O[C@H]2[C@H](OC(=O)N[C@@H](Cc3ccccc3)[C@H](O)C(=O)N3C[C@@H](Cl)C[C@H]3C(=O)NC(C)(C)C)[C@H](OC)OC[C@H]2O1 (stereo partly drawn)" readout_label=IC50 test_value="> 1000 nM"
compound=CC(C)(C)NC(=O)[C@@H]1C[C@H](Cl)CN1C(=O)[C@@H](O)[C@H](Cc1ccccc1)NC(=O)c1cccc(F)c1 readout_label=IC50 test_value="20 nM"
compound=CC(C)(C)NC(=O)[C@@H]1C[C@H](Cl)CN1C(=O)[C@@H](O)[C@H](Cc1ccccc1)NC(=O)c1ccccc1Cl readout_label=IC50 test_value="11 nM"
compound="CC(C)(C)NC(=O)[C@@H]1C[C@H](Cl)CN1C(=O)[C@@H](O)[C@H](Cc1ccccc1)NC(=O)OC1CCOC1 (stereo partly drawn)" readout_label=IC50 test_value="4.9 nM"
compound=CC(C)(C)NC(=O)[C@@H]1C[C@H](Cl)CN1C(=O)[C@@H](O)[C@H](Cc1ccccc1)NC(=O)c1ccccc1Br readout_label=IC50 test_value="12 nM"
compound="CC(C)(C)NC(=O)[C@@H]1C[C@H](Cl)CN1C(=O)[C@@H](O)[C@H](Cc1ccccc1)NC(=O)OC1CCSC1 (stereo partly drawn)" readout_label=IC50 test_value="7.7 nM"
compound=CO[C@H]1OCC=C[C@H]1OC(=O)N[C@@H](Cc1ccccc1)[C@H](O)C(=O)N1C[C@@H](Cl)C[C@H]1C(=O)NC(C)(C)C readout_label=IC50 test_value="35 nM"
compound=CCc1c(O)cccc1C(=O)N[C@@H](Cc1ccccc1)[C@H](O)C(=O)N1C[C@@H](Cl)C[C@H]1C(=O)NC(C)(C)C readout_label=IC50 test_value="0.9 nM"
compound=CC(C)(C)NC(=O)[C@@H]1C[C@H](Cl)CN1C(=O)[C@@H](O)[C@H](Cc1ccccc1)NC(=O)O[C@H]1C=CCOC1 readout_label=IC50 test_value="4.5 nM"
compound=CO[C@@H]1OCC=C[C@@H]1OC(=O)N[C@@H](Cc1ccccc1)[C@H](O)C(=O)N1C[C@@H](Cl)C[C@H]1C(=O)NC(C)(C)C readout_label=IC50 test_value="29 nM"
compound=CCCc1c(O)cccc1C(=O)N[C@@H](Cc1ccccc1)[C@H](O)C(=O)N1C[C@@H](Cl)C[C@H]1C(=O)NC(C)(C)C readout_label=IC50 test_value="1.6 nM"
compound=CC(C)(C)NC(=O)[C@@H]1C[C@H](Cl)CN1C(=O)[C@@H](O)[C@H](Cc1ccccc1)NC(=O)c1cccc2ccccc12 readout_label=IC50 test_value="9 nM"
compound=CC(C)(C)NC(=O)[C@@H]1C[C@H](Cl)CN1C(=O)[C@@H](O)[C@H](Cc1ccccc1)NC(=O)O[C@H]1CCCOC1 readout_label=IC50 test_value="14 nM"
compound=Cc1c(F)cccc1C(=O)N[C@@H](Cc1ccccc1)[C@H](O)C(=O)N1C[C@@H](Cl)C[C@H]1C(=O)NC(C)(C)C readout_label=IC50 test_value="5.6 nM"
compound=CC(C)(C)NC(=O)[C@@H]1C[C@H](Cl)CN1C(=O)[C@@H](O)[C@H](Cc1ccccc1)NC(=O)c1ccc2ccccc2c1 readout_label=IC50 test_value="50 nM"
compound=CC(C)(C)NC(=O)[C@@H]1C[C@H](Cl)CN1C(=O)[C@@H](O)[C@H](Cc1ccccc1)NC(=O)c1cccc(O)c1Br readout_label=IC50 test_value="1.5 nM"
compound=CC(C)(C)NC(=O)[C@@H]1C[C@H](Cl)CN1C(=O)[C@@H](O)[C@H](Cc1ccccc1)NC(=O)O[C@@H]1CO[C@H]2[C@@H]1OC[C@H]2O readout_label=IC50 test_value="25 nM"
compound="CC(C)(C)NC(=O)[C@@H]1C[C@H](Cl)CN1C(=O)[C@@H](O)[C@H](Cc1ccccc1)NC(=O)OC1CCS(=O)(=O)C1 (stereo partly drawn)" readout_label=IC50 test_value="11 nM"
compound=Cc1cccc(C)c1C(=O)N[C@@H](Cc1ccccc1)[C@H](O)C(=O)N1C[C@@H](Cl)C[C@H]1C(=O)NC(C)(C)C readout_label=IC50 test_value="3.6 nM"
compound=Cc1c(O)cccc1C(=O)N[C@@H](Cc1ccccc1)[C@H](O)C(=O)N1C[C@@H](Cl)C[C@H]1C(=O)NC(C)(C)C readout_label=IC50 test_value="0.8 nM"
compound=CCCc1ccccc1C(=O)N[C@@H](Cc1ccccc1)[C@H](O)C(=O)N1C[C@@H](Cl)C[C@H]1C(=O)NC(C)(C)C readout_label=IC50 test_value="29 nM"
compound=CC(C)(C)NC(=O)[C@@H]1C[C@H](Cl)CN1C(=O)[C@@H](O)[C@H](Cc1ccccc1)NC(=O)c1ccccc1 readout_label=IC50 test_value="26 nM"
compound=CC(C)(C)NC(=O)[C@@H]1C[C@H](Cl)CN1C(=O)[C@@H](O)[C@H](Cc1ccccc1)NC(=O)c1ccccc1O readout_label=IC50 test_value="> 1000 nM"
compound=CC(C)(C)NC(=O)[C@@H]1C[C@H](Cl)CN1C(=O)[C@@H](O)[C@H](Cc1ccccc1)NC(=O)c1ccccc1I readout_label=IC50 test_value="14 nM"
compound=COc1cccc(C(=O)N[C@@H](Cc2ccccc2)[C@H](O)C(=O)N2C[C@@H](Cl)C[C@H]2C(=O)NC(C)(C)C)c1O readout_label=IC50 test_value="> 1000 nM"
compound=Cc1ccc(O)c(C)c1C(=O)N[C@@H](Cc1ccccc1)[C@H](O)C(=O)N1C[C@@H](Cl)C[C@H]1C(=O)NC(C)(C)C readout_label=IC50 test_value="2.5 nM"
compound=CC(C)(C)NC(=O)[C@@H]1C[C@H](Cl)CN1C(=O)[C@@H](O)[C@H](Cc1ccccc1)NC(=O)c1cccc(O)c1 readout_label=IC50 test_value="9 nM"
